tested on: HT-29 cells; experiment: Metabolic stability under cell culture conditions (incubation with HT-29 cells); format: in vitro ADME, human; details: incubating with HT-29 cells at maximum DMEM concentration at 37° C.
quantity_measured: Metabolic half life (h)

a: CC1=NN(C(=O)c2ccc(O)cc2)C(=O)C1/N=N/c1ccc(S(=O)(=O)Nc2ncccn2)cc1 (stereo not shown) [Compound 360]
b: CC1=NN(C(=O)c2ccc(C(C)(C)C)cc2)C(=O)C1/N=N/c1ccc(S(=O)(=O)Nc2ncccn2)cc1 (stereo not shown) [Compound 332]
c: CC1=NN(C(=O)c2ccccc2)C(=O)C1/N=N/c1ccc(S(=O)(=O)Nc2ncccn2)cc1 (stereo not shown) [Compound 331]
In: Hey, quick one: sort these by Metabolic half life, largest value first please. Give the labels in the order specified.
Out: a, b, c
